Values compiled from patent US12630600B2.

Biological target: human glucagon receptor (human, UniProt P47871)
Assay: cell-based or functional assay
Starred links: 1 amine or outer side, 2 acyl side, 3 side chain; linkers in the order of their positions; H or OH if unused. Non-standard residues stand in square brackets, D forms with d. Groups on a side chain read outwards from the residue. Primed or numbered codes have the meaning given here. No end group written: not given here. *: point of attachment. Dip = N[C@H](C(=O)O)C(c1ccccc1)c1ccccc1; γGlu = O=C(O)[C@H](CCC(=O)[*:2])N[*:1]; Stearoyl = CCCCCCCCCCCCCCCCCC(=O)*; Palmitoyl = CCCCCCCCCCCCCCCC(=O)*; αMeF = C[C@](N)(Cc1ccccc1)C(=O)O; (PEG)2 = polyethylene glycol 2; PEG4′ = polyethylene glycol; Aib = CC(C)(N)C(=O)O
# cAMP production, hGluc-R EC50 (pM) values compiled below
All answers are understood in pM, so give the number only.

Below are worked cases with known answers.
>>> print(df.to_string())
                                     binder                  measured_attribute  data_value
0  HSQGS[αMeF]TSDVSK[αMeF]LDSK([(PEG)2-(PEG)2-γGlu-γGlu-Palmitoyl])AAQD[αMeF]VQ[Aib]IAN-NH2 [Peptide 87]  cAMP production, hGluc-R EC50 (pM)        8.46
1  HSQGS[αMeF]TSDVSK[Aib]LDSK([(PEG)2-(PEG)2-γGlu-γGlu-Stearoyl])AAQD[αMeF]VQ[Aib]IAN-NH2 [Peptide 100]  cAMP production, hGluc-R EC50 (pM)        40.5
2  H[Aib]QGS[αMeF]TSDVSK[αMeF]LDSK([PEG4′-γGlu-γGlu-Palmitoyl])AAQD[αMeF]VE[Aib]LEAGG-NH2 [Peptide 72]  cAMP production, hGluc-R EC50 (pM)        73.7
3  HSQGS[αMeF]TSDVSK[Dip]LDSK([γGlu-γGlu-(PEG)2-(PEG)2-Stearoyl])AAQD[αMeF]VE[Aib]IINT-NH2 [Peptide 59]  cAMP production, hGluc-R EC50 (pM)        28.4

Prompt line: Give cAMP production, hGluc-R EC50 (pM) for the following binder: H[Aib]QGS[αMeF]TSDVSKILDSK([(PEG)2-(PEG)2-γGlu-Palmitoyl])AAQD[αMeF]VQ[Aib]IINT-NH2 [Peptide 128]
Response line: 4.7
